The reported numbers originate from paper PMC10175095.

# test-method-notes: Long-term stability of unprocessed plasma samples at −80°C
# Assay type: in vitro ADME
# condition-summary: human plasma, 12 months, nominal 1500 ng/mL
Entries and their measured Mean measured concentration follow.
Report as a plain number; the unit ng/mL is understood.

Enquiry: Recorded Mean measured concentration of Cc1nc2c(F)cc(-c3nc(Nc4ccc(CN5CCNCC5)cn4)ncc3F)cc2n1C(C)C , please.
Return: 1567

Enquiry: Need Mean measured concentration of CN(C)C(=O)c1cc2cnc(Nc3ccc(N4CCNCC4)cn3)nc2n1C1CCCC1 , thanks.
Return: 1613

Enquiry: Given the compound CC(=O)c1c(C)c2cnc(Nc3ccc(N4CCNCC4)cn3)nc2n(C2CCCC2)c1=O , what is its reported Mean measured concentration?
Return: 1613

Enquiry: Entry CCN1CCN(Cc2ccc(Nc3ncc(F)c(-c4cc(F)c5nc(C)n(C(C)C)c5c4)n3)nc2)CC1 : reported Mean measured concentration = ?
Return: 1583

---

Below: a set of entries, each annotated with reported Mean measured concentration.
# test-method-notes: Long-term stability of unprocessed plasma samples at −80°C
# Type: in vitro ADME
# condition-summary: human plasma, 7 months, nominal 150 ng/mL
Report the figure in ng/mL without appending any unit label.

| molecule | unit-abbrev | Mean measured concentration |
| --- | --- | --- |
| Cc1nc2c(F)cc(-c3nc(Nc4ccc(CN5CCNCC5)cn4)ncc3F)cc2n1C(C)C | ng/mL | 154 |
| CC(=O)c1c(C)c2cnc(Nc3ccc(N4CCNCC4)cn3)nc2n(C2CCCC2)c1=O | ng/mL | 163 |
| CCN1CCN(Cc2ccc(Nc3ncc(F)c(-c4cc(F)c5nc(C)n(C(C)C)c5c4)n3)nc2)CC1 | ng/mL | 156 |

Here's the next entry for you.
Enquiry: Reported Mean measured concentration, compound CN(C)C(=O)c1cc2cnc(Nc3ccc(N4CCNCC4)cn3)nc2n1C1CCCC1 : ____
Return: 160

---

Catalogue of Mean measured concentration readings, one per entry.
# test-method-notes: Long-term stability of unprocessed plasma samples at −80°C
# Format: in vitro ADME
# condition-summary: human plasma, 7 months, nominal 1500 ng/mL

| compound | Mean measured concentration |
| --- | --- |
| CCN1CCN(Cc2ccc(Nc3ncc(F)c(-c4cc(F)c5nc(C)n(C(C)C)c5c4)n3)nc2)CC1 [Abemaciclib, abemaciclib] | 1443 ng/mL |
| Cc1nc2c(F)cc(-c3nc(Nc4ccc(CN5CCNCC5)cn4)ncc3F)cc2n1C(C)C [Abemaciclib-M2] | 1403 ng/mL |
| CN(C)C(=O)c1cc2cnc(Nc3ccc(N4CCNCC4)cn3)nc2n1C1CCCC1 [Ribociclib, ribociclib] | 1403 ng/mL |

Enquiry: Recorded Mean measured concentration for CC(=O)c1c(C)c2cnc(Nc3ccc(N4CCNCC4)cn3)nc2n(C2CCCC2)c1=O [Palbociclib, palbociclib] , please?
Return: 1383 ng/mL

---

# test-method-notes: Long-term stability of unprocessed plasma samples at −80°C
# Type: in vitro ADME
# condition-summary: human plasma, 3 months, nominal 150 ng/mL
parameter-measured: Accuracy vs fresh QCs

The examples below pair each entry with its known result.
| molecule | parameter-measured | experimental-value |
| --- | --- | --- |
| CN(C)C(=O)c1cc2cnc(Nc3ccc(N4CCNCC4)cn3)nc2n1C1CCCC1 [Ribociclib, ribociclib] | Accuracy vs fresh QCs | 105% |
| Cc1nc2c(F)cc(-c3nc(Nc4ccc(CN5CCNCC5)cn4)ncc3F)cc2n1C(C)C [Abemaciclib-M2] | Accuracy vs fresh QCs | 104% |
| CCN1CCN(Cc2ccc(Nc3ncc(F)c(-c4cc(F)c5nc(C)n(C(C)C)c5c4)n3)nc2)CC1 [Abemaciclib, abemaciclib] | Accuracy vs fresh QCs | 95.5% |

Enquiry: Any idea what its Accuracy vs fresh QCs is? The molecule is CC(=O)c1c(C)c2cnc(Nc3ccc(N4CCNCC4)cn3)nc2n(C2CCCC2)c1=O [Palbociclib, palbociclib]
Return: 92.8%

---

# test-method-notes: Long-term stability of unprocessed plasma samples at −80°C
# Format: in vitro ADME
# condition-summary: human plasma, 3 months, nominal 15 ng/mL
We begin with a simple list: items and their reported Accuracy vs fresh QCs.
Report only the number, with the unit % understood.

// worked examples, Accuracy vs fresh QCs included
| molecule | Accuracy vs fresh QCs (%) |
| --- | --- |
| Cc1nc2c(F)cc(-c3nc(Nc4ccc(CN5CCNCC5)cn4)ncc3F)cc2n1C(C)C [Abemaciclib-M2] | 107 |
| CCN1CCN(Cc2ccc(Nc3ncc(F)c(-c4cc(F)c5nc(C)n(C(C)C)c5c4)n3)nc2)CC1 [Abemaciclib, abemaciclib] | 98.6 |
| CC(=O)c1c(C)c2cnc(Nc3ccc(N4CCNCC4)cn3)nc2n(C2CCCC2)c1=O [Palbociclib, palbociclib] | 94.0 |

Enquiry: Looking for the measured Accuracy vs fresh QCs of CN(C)C(=O)c1cc2cnc(Nc3ccc(N4CCNCC4)cn3)nc2n1C1CCCC1 [Ribociclib, ribociclib] , can you help?
Return: 106

---

# test-method-notes: Reinjection stability in final extract
# Type: physicochemical
# condition-summary: reinjected, 4°C, autosampler, 25.95 h, nominal 15 ng/mL
parameter-measured: Mean measured concentration

These recorded examples may help you get a feel for the data.
| molecule | Mean measured concentration |
| --- | --- |
| Cc1nc2c(F)cc(-c3nc(Nc4ccc(CN5CCNCC5)cn4)ncc3F)cc2n1C(C)C | 16.9 ng/mL |
| CC(=O)c1c(C)c2cnc(Nc3ccc(N4CCNCC4)cn3)nc2n(C2CCCC2)c1=O | 16.7 ng/mL |
| CN(C)C(=O)c1cc2cnc(Nc3ccc(N4CCNCC4)cn3)nc2n1C1CCCC1 | 16.5 ng/mL |

As a next step, examine the compound that follows.
Enquiry: // query Mean measured concentration value for entry CCN1CCN(Cc2ccc(Nc3ncc(F)c(-c4cc(F)c5nc(C)n(C(C)C)c5c4)n3)nc2)CC1
Return: 16.4 ng/mL

---

# test-method-notes: Long-term stability of unprocessed plasma samples at −80°C
# Assay type: in vitro ADME
# condition-summary: human plasma, 12 months, nominal 1500 ng/mL
parameter-measured: Accuracy vs fresh QCs
Answer with the number, then the unit.

| molecule | experimental-value |
| --- | --- |
| CN(C)C(=O)c1cc2cnc(Nc3ccc(N4CCNCC4)cn3)nc2n1C1CCCC1 | 101% |
| CC(=O)c1c(C)c2cnc(Nc3ccc(N4CCNCC4)cn3)nc2n(C2CCCC2)c1=O | 87.0% |
| Cc1nc2c(F)cc(-c3nc(Nc4ccc(CN5CCNCC5)cn4)ncc3F)cc2n1C(C)C | 96.8% |

Consider the additional compound presented here.
Enquiry: Which measured Accuracy vs fresh QCs value corresponds to CCN1CCN(Cc2ccc(Nc3ncc(F)c(-c4cc(F)c5nc(C)n(C(C)C)c5c4)n3)nc2)CC1 ?
Return: 96.6%

---

# test-method-notes: Pre-processed stability in human plasma
# Format: in vitro ADME
# condition-summary: 37°C, dark, 2.5 h, nominal 15 ng/mL
parameter-measured: Accuracy vs fresh QCs
Kindly report the value followed by its unit.

Enquiry: Recorded Accuracy vs fresh QCs of CCN1CCN(Cc2ccc(Nc3ncc(F)c(-c4cc(F)c5nc(C)n(C(C)C)c5c4)n3)nc2)CC1 , please.
Return: 97.5%

Enquiry: Sample Cc1nc2c(F)cc(-c3nc(Nc4ccc(CN5CCNCC5)cn4)ncc3F)cc2n1C(C)C — what was its Accuracy vs fresh QCs?
Return: 95.8%

Enquiry: Quick one: Accuracy vs fresh QCs of CC(=O)c1c(C)c2cnc(Nc3ccc(N4CCNCC4)cn3)nc2n(C2CCCC2)c1=O ?
Return: 94.8%

Enquiry: I would be grateful if you could share the reported Accuracy vs fresh QCs for CN(C)C(=O)c1cc2cnc(Nc3ccc(N4CCNCC4)cn3)nc2n1C1CCCC1 .
Return: 97.8%

---

# test-method-notes: Pre-processed stability in human plasma
# Format: in vitro ADME
# condition-summary: 37°C, dark, 2.5 h, nominal 15 ng/mL
parameter-measured: Mean measured concentration (ng/mL)
Supply the numeric figure in ng/mL, leaving out any unit text.

Example cases with answers are listed next.
| compound | unit-abbrev | Mean measured concentration |
| --- | --- | --- |
| Cc1nc2c(F)cc(-c3nc(Nc4ccc(CN5CCNCC5)cn4)ncc3F)cc2n1C(C)C [Abemaciclib-M2] | ng/mL | 15.1 |
| CC(=O)c1c(C)c2cnc(Nc3ccc(N4CCNCC4)cn3)nc2n(C2CCCC2)c1=O [Palbociclib, palbociclib] | ng/mL | 15.4 |
| CCN1CCN(Cc2ccc(Nc3ncc(F)c(-c4cc(F)c5nc(C)n(C(C)C)c5c4)n3)nc2)CC1 [Abemaciclib, abemaciclib] | ng/mL | 15.4 |

Note: attention shifts to another entry.
Enquiry: Entry under review: CN(C)C(=O)c1cc2cnc(Nc3ccc(N4CCNCC4)cn3)nc2n1C1CCCC1 [Ribociclib, ribociclib] . Reported Mean measured concentration?
Return: 15.9
